From: the supplement of paper PMC10657565

Reported relative cell viability values for a set of molecules
Tested on: SUM159
test.name: relative cell viability vs DMSO control (% of DMSO control); higher = less growth inhibition (higher viability)
test.context: 30 µM; treatment time: 72 h
Please give the numeric answer without any surrounding text.

Worked cases, relative cell viability given:
{"molecule": "COCCN1CCN(Cc2ccc(-c3n[nH]c4c3C(=O)c3c(NC(=O)NN5CCOCC5)cccc3-4)cc2)CC1", "result": 0.538}
{"molecule": "COc1cc2ncnc(Nc3ccc(O)cc3)c2cc1OC", "result": 59.2}
{"molecule": "c1cc(OCCN2CCCCC2)cc(-c2n[nH]c3ccc(-c4nnc[nH]4)cc23)c1", "result": 52.5}
{"molecule": "CC(C)c1cc(CNc2nc(Nc3cc(C4CC4)[nH]n3)cc(N3CCN(C)CC3)n2)on1", "result": 10.8}
{"molecule": "Cc1cc(Nc2ncc(Cl)c(Nc3ccccc3S(=O)(=O)C(C)C)n2)c(OC(C)C)cc1C1CCNCC1", "result": 0.279}
{"molecule": "COC(=O)[C@@]1(O)C[C@H]2O[C@]1(C)n1c3ccccc3c3c4c(c5c6ccccc6n2c5c31)C(=O)NC4 [K-252a]", "result": 2.12}
{"molecule": "Cc1c(F)cc(C(=O)NC2CC2)cc1-c1ccc(C(=O)NCC(C)(C)C)cn1", "result": 68.5}

IN: Query (molecule): COCc1c(-c2ccc(NC(=O)Nc3cc(C(F)(F)F)ccc3F)c(F)c2)c2c(N)ncnn2c1CN1CCOCC1 ; field requested: relative cell viability
OUT: 0.887
